SYSTEM: ZmDRIK1-K217-P492 (Zea mays)
Construct: kinase domain, K217-P492
Sequence (C0P4K9 1-514): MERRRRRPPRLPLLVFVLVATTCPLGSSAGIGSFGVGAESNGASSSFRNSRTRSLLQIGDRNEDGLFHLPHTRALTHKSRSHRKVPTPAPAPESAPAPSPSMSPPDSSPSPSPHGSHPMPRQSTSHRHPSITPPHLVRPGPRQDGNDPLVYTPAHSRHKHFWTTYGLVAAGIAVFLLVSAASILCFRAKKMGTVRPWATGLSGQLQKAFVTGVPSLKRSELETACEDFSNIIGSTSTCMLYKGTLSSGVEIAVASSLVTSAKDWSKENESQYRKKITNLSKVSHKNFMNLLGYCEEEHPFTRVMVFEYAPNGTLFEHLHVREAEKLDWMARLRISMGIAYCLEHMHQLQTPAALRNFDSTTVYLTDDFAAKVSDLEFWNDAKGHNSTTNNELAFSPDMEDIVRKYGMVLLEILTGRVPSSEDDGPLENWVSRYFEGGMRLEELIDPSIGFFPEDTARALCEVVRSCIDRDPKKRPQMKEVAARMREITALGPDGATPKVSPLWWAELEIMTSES
EXPERIMENTAL PROTOCOL: biochemical
CONDITION SUMMARY: read-out: dTm B, sheet ZmDRIK1-K217-P492;; DSF, Boltzmann fit, 0.1% DMSO
READOUT LABEL: ΔTm at 10 µM (°C)

{"columns": ["COMPOUND", "NUMERIC RESULT"],
 "data": [
  ["CN(C)CCCn1cc(C2=C(c3c[nH]c4ccccc34)C(=O)NC2=O)c2ccccc21 [GF109203X]", -1.16],
  ["CNC(=O)Nc1ccc(-c2nc(N3CC4CCC(C3)O4)c3cnn(C4CCC5(CC4)OCCO5)c3n2)cc1", -0.91],
  ["CC[C@H](Nc1ncnc2[nH]cnc12)c1nc2cccc(F)c2c(=O)n1-c1ccccc1", -0.995],
  ["COc1cc2nccc(Oc3ccc(NC(=O)Nc4ccc(F)cc4F)c(F)c3)c2cc1OC", -0.321],
  ["COc1cc(Nc2ncc(F)c(Nc3ccc4c(n3)N(COP(=O)(O)O)C(=O)C(C)(C)O4)n2)cc(OC)c1OC [Fostamatinib (R788)]", -0.792],
  ["CCn1c(-c2nonc2N)nc2c(C#CC(C)(C)O)ncc(OC[C@H]3CCCNC3)c21", -1.08],
  ["Cn1cc(C2=C(c3cn(C4CCN(Cc5ccccn5)CC4)c4ccccc34)C(=O)NC2=O)c2ccccc21", -1.33]
]}

----------
Item-by-item account of ΔTm at 10 µM
SYSTEM: ZmDRIK1 (DROUGHT RESPONSIVE INACTIVE KINASE 1), kinase domain (Zea mays)
Construct: gene ZEAMMB73_Zm00001d028770; ZmDRIK1-KD R187-S514 (kinase domain)
Sequence (C0P4K9 187-514): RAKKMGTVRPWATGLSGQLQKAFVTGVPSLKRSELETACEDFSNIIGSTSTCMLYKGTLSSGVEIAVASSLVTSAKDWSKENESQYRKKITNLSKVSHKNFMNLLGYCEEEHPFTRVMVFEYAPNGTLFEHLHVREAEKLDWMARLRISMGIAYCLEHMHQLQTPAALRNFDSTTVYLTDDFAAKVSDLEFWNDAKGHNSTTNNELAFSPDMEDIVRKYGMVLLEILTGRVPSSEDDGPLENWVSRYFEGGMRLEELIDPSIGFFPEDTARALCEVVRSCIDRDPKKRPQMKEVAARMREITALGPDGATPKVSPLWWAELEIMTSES
EXPERIMENTAL PROTOCOL: biochemical
CONDITION SUMMARY: read-out: dTm B, sheet ZmDRIK1-R187-S514;; DSF, Boltzmann fit, 0.1% DMSO
Where a name gives a salt, the structure may show the parent alone.

{"columns": ["MOLECULE", "QUANTITY UNIT", "ΔTm at 10 µM"],
 "data": [
  ["NC1(Cc2ccc(Cl)cc2)CCN(c2ncnc3[nH]ccc23)CC1 [CCT128930]", "°C", -0.523],
  ["COc1cc(Nc2ncc(F)c(Nc3ccc4c(n3)N(COP(=O)(O)O)C(=O)C(C)(C)O4)n2)cc(OC)c1OC [Fostamatinib (R788)]", "°C", -0.579],
  ["Nc1cc(C(F)(F)F)c(-c2cc(N3CCOCC3)nc(N3CCOCC3)n2)cn1 [BKM120 (NVP-BKM120)]", "°C", -0.731],
  ["CO[C@H]1C[C@@H]2CC[C@@H](C)[C@@](O)(O2)C(=O)C(=O)N2CCCC[C@H]2C(=O)O[C@H]([C@H](C)C[C@@H]2CC[C@@H](OP(C)(C)=O)[C@H](OC)C2)CC(=O)[C@H](C)/C=C(\\C)[C@@H](O)[C@@H](OC)C(=O)[C@H](C)C[C@H](C)/C=C/C=C/C=C/1C [Ridaforolimus (Deforolimus)]", "°C", -0.675],
  ["O=C(Nc1c[nH]nc1-c1nc2ccc(CN3CCOCC3)cc2[nH]1)NC1CC1 [AT9283]", "°C", -0.914],
  ["Cc1c(Cn2c(C)nc3c(C(=O)O)cc(N4CCOCC4)cc32)cccc1C(F)(F)F [GSK2636771]", "°C", -0.589],
  ["CN1CCN(c2ccc(OC(F)(F)F)c(Nc3ncc4c(n3)-c3c(c(C(N)=O)nn3CCO)CC4)c2)CC1 [NMS-P937 (NMS1286937)]", "°C", -1.15],
  ["COc1cc2ncnc(Nc3ccc(Cl)cc3F)c2cc1OC [ZM 306416]", "°C", -0.525],
  ["C=CC(=O)N1CCC[C@@H](n2nc(-c3ccc(Oc4ccccc4)cc3)c3c(N)ncnc32)C1 [Ibrutinib (PCI-32765)]", "°C", -0.597],
  ["Cc1cnc(-c2cnc(NCCNc3ccc(C#N)cn3)nc2-c2ccc(Cl)cc2Cl)[nH]1 [CHIR-99021 (CT99021) HCl]", "°C", -0.639],
  ["CN([C@@H](Cc1ccc(OS(=O)(=O)c2cccc3cnccc23)cc1)C(=O)N1CCN(c2ccccc2)CC1)S(=O)(=O)c1cccc2cnccc12 [KN-62]", "°C", -1.39],
  ["CNC(=O)c1cc(Oc2ccc(NC(=O)Nc3ccc(Cl)c(C(F)(F)F)c3)c(F)c2)ccn1 [Regorafenib (BAY 73-4506)]", "°C", -15.3],
  ["CN[C@@H]1C[C@H]2O[C@@](C)([C@@H]1OC)n1c3ccccc3c3c4c(c5c6ccccc6n2c5c31)C(=O)NC4 [Staurosporine]", "°C", -0.601],
  ["CNC(=O)c1ccccc1Nc1nc(Nc2ccc(N3CCOCC3)cc2OC)ncc1Cl [TAE226 (NVP-TAE226)]", "°C", -0.781]
]}

----------
SYSTEM: ZmDRIK1-K217-S514 (Zea mays, UniProt C0P4K9)
Construct: kinase domain, K217-S514
EXPERIMENTAL PROTOCOL: biochemical
CONDITION SUMMARY: read-out: dTm B, sheet ZmDRIK1-K217-S514;; DSF, Boltzmann fit, 0.1% DMSO
Counter-ions that a name gives are not always drawn.

{"columns": ["MOLECULE", "ΔTm at 10 µM"],
 "data": [
  ["Cc1cc(C(C)Nc2ccccc2)c2nc(N3CCOCC3)cc(=O)n2c1 (stereo not drawn) [TGX-221]", "-0.0845 °C"],
  ["C=CC(=O)Nc1cccc(Oc2nc(Nc3ccc(N4CCN(C)CC4)cc3OC)ncc2Cl)c1 [WZ4002]", "-0.557 °C"],
  ["FC(F)c1nc2ccccc2n1-c1nc(N2CCOCC2)nc(N2CCOCC2)n1 [ZSTK474]", "-0.199 °C"],
  ["Cc1[nH]c2ccccc2c1C1=C(NCCc2ccc(F)cc2)C(=O)N(C)C1=O [IM-12]", "-0.628 °C"],
  ["C=CC(=O)Nc1cccc(Nc2nc(Nc3ccc(Oc4ccnc(C(=O)NC)c4)cc3)ncc2F)c1 [CNX-774]", "-0.729 °C"],
  ["CCCS(=O)(=O)Nc1ccc(F)c(C(=O)c2c[nH]c3ncc(-c4ccc(Cl)cc4)cc23)c1F [Vemurafenib (PLX4032)]", "-0.89 °C"],
  ["O=S(=O)(c1cccc2cnccc12)N1CCCNCC1 [Fasudil (HA-1077) HCl]", "-0.253 °C"],
  ["C#Cc1cccc(Nc2ncnc3cc(OCCOC)c(OCCO)cc23)c1 [OSI-420]", "-0.412 °C"],
  ["COc1cc(F)c(F)c(Nc2ccc(I)cc2F)c1NS(=O)(=O)C1(C[C@H](O)CO)CC1 [Refametinib (RDEA119)]", "-0.254 °C"],
  ["O=C1Nc2ccccc2/C1=C1/Nc2ccccc2C1=O [Indirubin]", "-0.386 °C"],
  ["Oc1ccc(Nc2nc(-c3ccc(Cl)cc3)cs2)cc1 [SKI II]", "-1.52 °C"],
  ["CS(=O)(=O)CCNCc1ccc(-c2ccc3ncnc(Nc4ccc(OCc5cccc(F)c5)c(Cl)c4)c3c2)o1 [Lapatinib (GW-572016) Ditosylate]", "-16 °C"],
  ["NC(=O)Nc1cc(-c2cccc(F)c2)sc1C(=O)N[C@H]1CCCNC1 [AZD7762]", "-0.261 °C"],
  ["C[C@H]1[C@H](C)CC[C@]2(C(=O)O)CC[C@]3(C)C(=CC[C@@H]4[C@@]5(C)C[C@@H](O)[C@H](O)[C@@](C)(CO)[C@@H]5CC[C@]43C)[C@H]12 [Asiatic Acid]", "-0.368 °C"],
  ["CO[C@H]1C[C@@H]2CC[C@@H](C)[C@@](O)(O2)C(=O)C(=O)N2CCCC[C@H]2C(=O)O[C@H]([C@H](C)C[C@@H]2CC[C@@H](OC(=O)C(C)(CO)CO)[C@H](OC)C2)CC(=O)[C@H](C)/C=C(\\C)[C@@H](O)[C@@H](OC)C(=O)[C@H](C)C[C@H](C)/C=C/C=C/C=C/1C [Temsirolimus (CCI-779)]", "-0.361 °C"]
]}

----------
SYSTEM: ZmDRIK1 (DROUGHT RESPONSIVE INACTIVE KINASE 1), kinase domain (Zea mays)
Construct: gene ZEAMMB73_Zm00001d028770; ZmDRIK1-KD R187-S514 (kinase domain)
EXPERIMENTAL PROTOCOL: biochemical
CONDITION SUMMARY: sheet ZmDRIK1-R187-S514;; DSF, Boltzmann fit, 0.1% DMSO; 10 µM; binder; dTm B
Structures can show the parent of a compound that is named as a salt.
dTm B under -0.6 degC gets y, anything at or over -0.6 degC gets n.

{"columns": ["COMPOUND", "CAT"],
 "data": [
  ["Cc1ccc(Nc2nccc(N(C)c3ccc4c(C)n(C)nc4c3)n2)cc1S(N)(=O)=O [Pazopanib]", "y"],
  ["CN1CCN(c2ccc3nc(-c4c(N)c5c(F)cccc5[nH]c4=O)[nH]c3c2)CC1 [Dovitinib (TKI-258) Dilactic Acid]", "n"],
  ["CN(c1ncccc1CNc1nc(Nc2ccc3c(c2)CC(=O)N3)ncc1C(F)(F)F)S(C)(=O)=O [PF-562271]", "n"],
  ["Cc1ccc(Nc2nccc(N(C)c3ccc4c(C)n(C)nc4c3)n2)cc1S(N)(=O)=O [Pazopanib HCl (GW786034 HCl)]", "y"],
  ["COc1cc(Nc2ncc(F)c(Nc3ccc4c(n3)NC(=O)C(C)(C)O4)n2)cc(OC)c1OC [R406 (free base)]", "y"],
  ["N#CC[C@H](C1CCCC1)n1cc(-c2ncnc3[nH]ccc23)cn1 [Ruxolitinib (INCB018424)]", "y"],
  ["CN1CCN(c2ccc3nc(-c4c(N)c5c(F)cccc5[nH]c4=O)[nH]c3c2)CC1 [Dovitinib (TKI-258)]", "n"],
  ["COc1cc(Nc2ncc(F)c(Nc3ccc4c(n3)NC(=O)C(C)(C)O4)n2)cc(OC)c1OC [R406]", "y"],
  ["CN(c1ncccc1CNc1nc(Nc2ccc3c(c2)CC(=O)N3)ncc1C(F)(F)F)S(C)(=O)=O [PF-00562271]", "y"]
]}
